# system tested: Bcl-xL, Q07817
# Sequence (Q07817 1-209): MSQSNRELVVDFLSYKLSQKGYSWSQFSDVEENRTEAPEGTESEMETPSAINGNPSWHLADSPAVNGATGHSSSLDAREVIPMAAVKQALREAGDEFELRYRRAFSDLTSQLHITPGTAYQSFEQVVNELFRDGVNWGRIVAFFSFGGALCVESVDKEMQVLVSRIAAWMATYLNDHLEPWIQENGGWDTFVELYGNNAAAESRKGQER
# assay text: peptide SPOT array, c-Myc-tagged receptor at 1 uM or 100 nM, anti-c-Myc-Cy3
measure name: SPOT signal as a fraction of Bim BH3's signal on the same receptor and array

INPUT: Quick check: SPOT signal as a fraction of Bim BH3's signal on the same receptor and array of KAIFDRLCKQLEKIGQQVDREPGDVA [ORC6L] ?
OUTPUT: 0.04
